Assay: E. coli acrAB mutant growth effects, primary screen, E. coli filamentation inducers, strain DRC39, OD650, 24 h (AID 1178);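 also: growth measured as culture turbidity by optical density at 650 nm; test concentration not given here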
Conditions: higher = more signal, called active from +8 up or from −8 down
measurement.label: z-score

[[record]]
compound = "CC(C)(C)N1C(=O)[C@H]2[C@H]3[C@H](O)[C@H](O)CC(=NOC[C@@H](O)COCc4ccco4)[C@H]3CC[C@H]2C1=O"
assay_result = -0.0207

[[record]]
compound = "COC(=O)[C@H](C)NC(=O)CCC1CC(OC(=O)NCc2cccc3ccccc23)CC2(CCCC(COC(=O)NCCC(C)C)O2)O1 (stereo not given in full)"
assay_result = 0.443

[[record]]
compound = "CC(=O)OC[C@H]1O[C@H](CC=NOCC[C@@H]2C=C[C@H](OC(C)=O)[C@@H](COC(C)=O)O2)C=C[C@@H]1OC(C)=O"
assay_result = 0.847

[[record]]
compound = "C[C@]12CCC3c4ccc(OCC5CO5)cc4CCC3C1CC[C@@H]2O (stereo not given in full)"
assay_result = -0.424

[[record]]
compound = "CC(CCN1CCCc2nc(C)c(C)cc21)=NO[C@@H](C)c1cn([C@H](CO)Cc2ccccc2)nn1"
assay_result = 0.851

[[record]]
compound = "CC(C)=CCCC(C)=CCON=C1[C@H]2CCn3c(=O)n(-c4ccccc4)c(=O)n3[C@H]2[C@H](O)[C@@H]2O[C@H]12"
assay_result = -0.611

[[record]]
compound = "CO[C@H]1COC(=O)CCC[C@H](C)[C@H](OC)COC(=O)CC=C[C@@H]1C"
assay_result = 0.115

[[record]]
compound = "CO[C@H]1C[C@@H]2C[C@H](O)CC(CC(=O)O[C@@H](C=CCC(C)C)C[C@@H]3CC[C@H](C)[C@@H](C1)O3)O2"
assay_result = -0.033

[[record]]
compound = "COC(=O)[C@H](C)NC(=O)CCC1CC(OC(=O)NCc2cccc3ccccc23)CC2(CCCC(COC(=O)NCc3ccccc3)O2)O1 (stereo not given in full)"
assay_result = -0.221

[[record]]
compound = "CCOC(=O)NN=C1C[C@@H](O)[C@@H](O)[C@@H]2[C@@H]3C(=O)N(c4ccc(F)cc4F)C(=O)[C@@H]3CC[C@H]12"
assay_result = 0.284

[[record]]
compound = "CC(=O)OC[C@H]1O[C@H](CC=NOC(C)CN2CCCc3nc(C)c(C)cc32)C=C[C@@H]1OC(C)=O (stereo not given in full)"
assay_result = 0.603

[[record]]
compound = "O=C1[C@H]2[C@H]3[C@H](O)[C@H](O)CC(=NOC[C@@H](O)COCc4ccco4)[C@@H]3CC[C@H]2C(=O)N1Cc1ccccc1"
assay_result = 0.17

[[record]]
compound = "CC[C@@H](c1ccccc1)n1c(=O)n2n(c1=O)[C@H]1[C@H](O)[C@@H]3O[C@@H]3C(=NOCc3ccccc3)[C@H]1CC2"
assay_result = -0.527

[[record]]
compound = "CCOC(=O)[C@H](CC(C)C)NC(=O)CCC1CC(OC(=O)NCCc2ccc(F)cc2)CC2(CCCC(COC(=O)NCCOC)O2)O1 (stereo not given in full)"
assay_result = 0.0415

[[record]]
compound = "CC(C)=CCCC(C)=CCON=C1C[C@@H](O)[C@@H](O)[C@@H]2[C@@H]3C(=O)N(Cc4ccc5c(c4)OCO5)C(=O)[C@@H]3CC[C@H]12"
assay_result = 0.454

